test system: isolated rat aorta; test: Calcium inhibitory properties: contractile response to potassium-induced depolarization on isolated rat aorta; design: species or system isolated organ, male Wistar rats; details: head printed "10^-" (exponent missing; first of three columns before 10^-6 M); 60 min
Counter-ions that a name gives are not always drawn.
Classify on % of the maximum contractional effect using low = under 10%, mid = from 10% up to 30%, high = 30% and over

Which of the defined bands does the recorded % of the maximum contractional effect of COc1ccc(CCN(C)CCCOc2ccc(S(=O)(=O)c3nccn3Cc3ccccc3)cc2)cc1OC sit within?
mid

Which of the defined bands does the recorded % of the maximum contractional effect of COc1ccc(CCN(C)CCCOc2ccc(S(=O)(=O)c3cn[nH]c3C(C)C)cc2)cc1OC sit within?
mid

Which of the defined bands does the recorded % of the maximum contractional effect of COc1ccc(CCN(C)CCCOc2ccc(S(=O)(=O)c3ccncc3)cc2)cc1OC sit within?
mid

Which of the defined bands does the recorded % of the maximum contractional effect of CC(C)(C)NCCCOc1ccc(S(=O)(=O)c2ccccn2)cc1 sit within?
high

Which of the defined bands does the recorded % of the maximum contractional effect of CCCCN(CCCC)CCCOc1ccc(Sc2ccncc2)cc1.O=C(O)C(=O)O.O=C(O)C(=O)O sit within?
low

Which of the defined bands does the recorded % of the maximum contractional effect of COc1ccc(CCN(C)CCCOc2ccc(S(=O)(=O)c3ccccn3)cc2)cc1OC sit within?
high

Which of the defined bands does the recorded % of the maximum contractional effect of CCCCN(CCCC)CCCOc1ccc(S(=O)(=O)c2cn[nH]c2C(C)C)cc1 sit within?
high

Which of the defined bands does the recorded % of the maximum contractional effect of CCCCN(CCCC)CCCOc1ccc(S(=O)(=O)c2ccncc2)cc1.O=C(O)C(=O)O.O=C(O)C(=O)O sit within?
mid

Which of the defined bands does the recorded % of the maximum contractional effect of COc1ccc(CCN(C)CCCOc2ccc(Sc3cnnc4ccccc34)cc2)cc1OC sit within?
low

Which of the defined bands does the recorded % of the maximum contractional effect of COc1ccc(CCN(C)CCCOc2ccc(S(=O)(=O)c3nccn3C(C)C)cc2)cc1OC [Ex. 96, dihydrochloride] sit within?
high

Which of the defined bands does the recorded % of the maximum contractional effect of COc1ccc(CCN(C)CCCOc2ccc(Sc3cc4ccccc4nn3)cc2)cc1OC sit within?
low

Which of the defined bands does the recorded % of the maximum contractional effect of COc1ccc(CCN(C)CCCOc2ccc(Sc3ccncc3)cc2)cc1OC sit within?
low

Which of the defined bands does the recorded % of the maximum contractional effect of CCCCN(CCCC)CCCOc1ccc(S(=O)(=O)c2ccccn2)cc1 sit within?
high

Which of the defined bands does the recorded % of the maximum contractional effect of COc1ccc(CCN(C)CCCOc2ccc(S(=O)(=O)c3cc4ccccc4nn3)cc2)cc1OC sit within?
mid

Data provenance: patent US5147878A
